measurementTarget: T1, human fibroblast activation protein (FAP) (human, UniProt Q12884 26-760)
T1 construct: also called human FAP; hFAP
T1 sequence: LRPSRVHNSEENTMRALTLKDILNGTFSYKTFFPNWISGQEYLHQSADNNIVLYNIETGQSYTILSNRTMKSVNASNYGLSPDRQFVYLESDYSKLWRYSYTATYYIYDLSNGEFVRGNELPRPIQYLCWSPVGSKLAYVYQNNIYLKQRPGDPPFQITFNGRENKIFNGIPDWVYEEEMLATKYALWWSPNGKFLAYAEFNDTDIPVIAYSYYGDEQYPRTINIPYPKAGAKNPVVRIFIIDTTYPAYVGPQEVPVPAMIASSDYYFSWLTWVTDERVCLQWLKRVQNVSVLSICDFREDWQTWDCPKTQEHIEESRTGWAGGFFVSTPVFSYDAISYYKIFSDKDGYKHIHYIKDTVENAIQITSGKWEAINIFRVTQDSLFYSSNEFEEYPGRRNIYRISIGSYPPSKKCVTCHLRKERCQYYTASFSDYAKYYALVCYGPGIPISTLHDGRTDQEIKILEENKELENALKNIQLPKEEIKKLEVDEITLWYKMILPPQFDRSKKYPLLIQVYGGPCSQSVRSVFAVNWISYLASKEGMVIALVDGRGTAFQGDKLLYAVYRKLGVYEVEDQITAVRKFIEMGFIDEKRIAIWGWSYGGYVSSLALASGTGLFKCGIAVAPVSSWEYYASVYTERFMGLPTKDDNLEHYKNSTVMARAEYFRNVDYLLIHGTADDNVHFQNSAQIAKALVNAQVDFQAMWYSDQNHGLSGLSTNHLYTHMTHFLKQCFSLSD
experimentSummary: BLI (Octet), kinetics to human FAP, pre TCO conjugation
Recorded koff values for a group of binders are listed next.

binder	koff [s⁻¹]
VHH8 (VHH, Anti-FAP VHH, tested before TCO conjugation; also called unconjugated VHH8) VHH: QVQLQESGGGTVQPGGSLRLSCAASGISVSIASMAWYRQAPGKQRELVAGIISGGSTNYADSVKGRFTISRDNAKKVVLLQMNSLKPEDTAVYYCNTYPPFVGPGATATWGQGTQVTVSS	0.000679
VHH9 (VHH, Anti-FAP VHH, tested before TCO conjugation; also called unconjugated VHH9) VHH: QVQLQESGGGLVQSGGSLRLSCVASGSISSINAMGWYRQAPGNKREWVAGITSGGSTNYADAVLGRFSIFRDNPKNTVYLQMNSLKPEDTAVYYCNTWPPSTFGSWGQGTQVTVSS	0.0018
VHH7 (VHH, Anti-FAP VHH, tested before TCO conjugation; also called unconjugated VHH7) VHH: QVQLQESGGGLVQAGGSLRLSCTASGTFSGRNAMAWYRQAPGKRRELVAGIRSDDSTNYVDSVKGRFTISRDNAKNTVYLQMNSLRPEDTAVYYCNLWPPVIGAGFGSWGQGTQVTVSS	0.000197
VHH1 (VHH, Anti-FAP VHH, tested before TCO conjugation; also called VHH VHH1; unconjugated VHH1) VHH: DVQLVESGGGLVQPGGSLRLSCVASGRLSSSNSMAWYRQVPGKRRELVAGITGGGETNYADFVGGRFTISRDNAKNGLYLQLNGLKPEDTAAYYCNFWPPLINYWGQGTQVTVSS	8.52e-05
VHH6 (VHH, Anti-FAP VHH, tested before TCO conjugation; also called unconjugated VHH6) VHH: DVQLVESGGGLVQAGGSLRLSCAVSGSISSANSMGWYRQAPGKQRDVVAGLTTGGRSHYADSVKGRFTISRDNAKNTVYLQMNSLKAEDTAVYYCNLWPPVQGYWGQGTQVTVSS	0.000188
